# Tested on: Human papillomavirus type 1a protein E7 (residues 44-93)
# assayMethodText: small molecules binding HPV E7 44-93 – biochemical, small-molecule microarray, residues 44-93, 635 nm fluorescence, primary screen (AID 1108);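 further: E7 fragment applied at 1 µg/mL in TBST for 1 h at 4 C; score combines spot fluorescence with its signal to noise ratio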
# particulars: fluorescence 635 nm, higher = more signal
Label Yes when composite z-score >= 1; otherwise No.

Illustrative cases are given below, each with its answer.
Cc1ccc(N2C(=O)c3ccccc3[C@](C)(C(=O)NCCN3CCOCC3)[C@@H]2c2ccc(CO)cc2)nc1	No
O=c1cccc(-c2cccc3ccccc23)o1	No
O=S(=O)(NCCCO)c1ccc(Br)cc1	No

composite z-score >= 1 for "CC(C)C(=C=CC[C@H](O)c1ccccc1OCCO)CCO" ? Yes

composite z-score >= 1 for "C=C[C@@H](C)[C@@H](OC(=O)Nc1ccc(OC)cc1)c1ccc(O)c2ccccc12" ? No

composite z-score >= 1 for "O=C1O[C@@H](c2ccccc2)[C@@H](c2ccccc2)N2[C@@H](c3ccc(O)cc3)[C@]3(C(=O)Nc4ccccc43)[C@@H](C(=O)NC[C@H](O)c3ccccc3)[C@H]12" ? Yes

composite z-score >= 1 for "COCCn1c(C(=O)N(C)C)cc2c1C[C@H]1CN(C(=O)c3ccccc3)[C@@](Cc3ccc(F)cc3)(C(=O)OC)[C@@H]21" ? Yes

composite z-score >= 1 for "Oc1ccc2cc[n+](Cc3cccc(OC(F)(F)F)c3)cc2c1" ? No

composite z-score >= 1 for "O=C1O[C@@H](c2ccccc2)[C@@H](c2ccccc2)N2[C@@H](c3ccc(O)cc3)[C@]3(C(=O)Nc4ccccc43)[C@@H](C(=O)N3CCCCCCC3)[C@H]12" ? Yes

----------
# Tested on: Human papillomavirus type 1a E7 protein (residues 1-88)
# assayMethodText: HPV1a E7 small-molecule binders, primary screen, biochemical, small-molecule microarray, residues 1-88, 635 nm (AID 1129)
# particulars: small-molecule microarray binding, fluorescence 635 nm; higher = more signal
assayEndpoint: composite z-score
Respond numerically, and do not add a unit to the figure.

Determine from records and report composite z-score for "CC(=O)NCCCC[C@@H]1NC(=O)[C@@H]2C[C@H](C(=O)NCc3ccc(F)cc3)[C@H](c3ccc(O)cc3)N2C1=O" 0.582

Determine from records and report composite z-score for "O=C(NCc1ccccc1)[C@@H]1c2ccccc2C(=O)N(C2CCCCC2)[C@H]1c1ccc(CO)cc1" 1.01

Determine from records and report composite z-score for CC(c1ccccc1)C(O)C1C=CC2C(=O)N(Cc3ccccc3)C(=O)C2N1n1cnnc1 (centres undefined) 0.914

Determine from records and report composite z-score for "C=C[C@H](OC)[C@@H](OC(=O)Nc1ccc(SC)cc1)c1ccc(OCCO)cc1" 1.22

----------
# testedOn: Torsin-1A (Homo sapiens) (UniProt O14656)
# Sequence (O14656 whole entry, looked up): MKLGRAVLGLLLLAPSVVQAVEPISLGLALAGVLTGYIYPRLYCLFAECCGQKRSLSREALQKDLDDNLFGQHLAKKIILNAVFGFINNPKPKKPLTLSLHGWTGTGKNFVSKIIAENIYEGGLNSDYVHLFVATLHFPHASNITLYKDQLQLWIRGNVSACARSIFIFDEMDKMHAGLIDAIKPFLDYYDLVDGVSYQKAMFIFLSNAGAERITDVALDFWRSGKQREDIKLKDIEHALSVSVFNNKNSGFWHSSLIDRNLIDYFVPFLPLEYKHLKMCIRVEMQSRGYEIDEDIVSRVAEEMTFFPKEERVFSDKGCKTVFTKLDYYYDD
# assayMethodText: TOR1A wild-type binding on microarray – cell lysate, small-molecule microarray, lysate, 635/667 nm, primary screen (AID 1149)
# particulars: COS7 hTOR1A-WT lysate, 635 nm fluorescence, higher = more signal
Label fulfilled when composite z-score >= 0.3; otherwise not fulfilled.

Illustrative cases are given below, each with its answer.
C=C(COC)C(=O)CC[C@H](OC(=O)c1cccnc1)c1ccccc1OCCO	fulfilled
CCCNC(=O)[C@@]1(C)c2ccccc2C(=O)N(Cc2cc(C(F)(F)F)cc(C(F)(F)F)c2)[C@H]1c1ccc(CO)cc1	not fulfilled
O=C1C2C=CC(C(O)c3ccc(-c4ccccc4)s3)N(Nc3ccccc3F)C2C(=O)N1c1ccccc1 (centres undefined)	not fulfilled
C=CCN1C(=O)[C@@]2(O[C@@H](CCO)[C@H]([Si](C)(C)c3ccc(OC)cc3)[C@H]2C)c2cc(NC(C)=O)ccc21	fulfilled
COc1ccc([Si](C)(C)[C@@H]2[C@@H](CCO)O[C@]3(C(=O)N(Cc4cccc(N5CCCCC5=O)c4)c4ccccc43)[C@H]2C)cc1	fulfilled

composite z-score >= 0.3 for "C=CCN1C(=O)[C@]2(Cc3ccccc31)N=C(c1ccc(OCCCO)cc1)O[C@@H]2c1ccccc1" ? not fulfilled

composite z-score >= 0.3 for "COCCOC(=O)N1C(=O)[C@@]2(c3cc(C#CCCO)ccc31)[C@H](C(=O)NC[C@H](O)c1ccccc1)[C@H]1C(=O)O[C@H](c3ccccc3)[C@H](c3ccccc3)N1[C@@H]2c1ccc(OCCO)cc1" ? not fulfilled

composite z-score >= 0.3 for "Cc1ccc(N2C(=O)c3ccccc3[C@@H](C(=O)NC(C)C)[C@@H]2c2ccc(CO)cc2)nc1" ? not fulfilled
